target: soluble human BACE1 catalytic domain (Homo sapiens (Human))
Sequence (P56817 75-416): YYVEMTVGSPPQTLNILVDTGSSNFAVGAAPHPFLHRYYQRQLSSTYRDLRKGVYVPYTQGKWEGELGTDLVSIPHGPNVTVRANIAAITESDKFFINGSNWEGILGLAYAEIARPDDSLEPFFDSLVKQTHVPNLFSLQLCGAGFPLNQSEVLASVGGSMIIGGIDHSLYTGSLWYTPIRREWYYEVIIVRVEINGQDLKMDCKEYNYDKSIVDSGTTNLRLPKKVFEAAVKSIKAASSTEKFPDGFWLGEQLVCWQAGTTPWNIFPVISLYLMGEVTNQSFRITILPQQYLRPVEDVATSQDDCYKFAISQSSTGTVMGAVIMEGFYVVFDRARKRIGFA
observation-type: Ki (nM)

Here is how some compounds turned out for Ki.
| compound | numeric-result |
| --- | --- |
| CN1CC2(C1)C(=N)N[C@](C)(c1cc(NC(=O)c3ccc(C#N)cn3)ccc1F)CS2(=O)=O | 1.7 |
| COc1cnc(C(=O)Nc2ccc(F)c([C@]3(C)CS(=O)(=O)C4(CN(C)C4)C(=N)N3)c2)c(C)c1 | 6.3 |

[A] COc1ccc(C(=O)Nc2ccc(F)c([C@]3(C)CS(=O)(=O)C4(CN(c5ccc([N+](=O)[O-])cc5)C4)C(=N)N3)c2)nc1
[B] Cc1cc(C#N)cnc1C(=O)Nc1ccc(F)c([C@]2(C)CS(=O)(=O)C3(CNC3)C(=N)N2)c1 [Example 36e]
[C] COc1cnc(C(=O)Nc2ccc(F)c([C@]3(C)CS(=O)(=O)C4(CN(C)C4)C(=N)N3)c2)cn1
[D] CC#CCOc1ccc(C(=O)Nc2ccc(F)c([C@]3(C)CS(=O)(=O)C4(CN(C)C4)C(=N)N3)c2)nc1
[E] COc1ccc(C(=O)Nc2ccc(F)c([C@]3(C)CS(=O)(=O)C4(CNC4)C(=N)N3)c2)nc1 [Example 36d]
Order the records so the highest Ki appears first and the lowest last. Provide the labels, sequenced as the question asks. E, C, B, D, A
